assay.text: Thermodynamic solubility of the compound in FeSSIF at pH 5
Assay type: physicochemical
study.conditions: read-out: Therm_solubility

compound.structure	unit.label	solubility thermodynamic
Cc1n[nH]c2ncc(C(=O)N3CCC[C@H]3c3ccc(Cl)cc3)cc12	µg/mL	836

====

assay.text: Fraction unbound in Beagle dog plasma at 0.2 mg/kg, iv as bolus dose or 0.5 mg/kg, po via gavage measured over 48 hrs
Type: ADME, organism-based, Canis lupus familiaris
endpoint.label: fraction unbound at 48 h

compound.structure	endpoint.label	quantitative.result
Cc1n[nH]c2ncc(C(=O)N3CCC[C@H]3c3ccc(Cl)cc3)cc12	fraction unbound at 48 h	0.5

====

assay.text: Intrinsic clearance in human liver microsomes at 1 uM preincubated for 5 mins followed by NADPH addition measured after 5 to 30 mins by LC-MS/MS analysis
Assay type: ADME
study.conditions: read-out: CLH
Classify by measured microsomal CLint at 1 µM: yes if it is equal to or exceeds 100 µL/min/mg, no if it is smaller.

compound	qualitative.label
Cc1n[nH]c2ccc(C(=O)N3CCN(C)CC3c3ccc(Cl)cc3)cc12 (centres undefined)	yes
Cc1n[nH]c2ccc(C(=O)N3CCC[C@H]3c3ccc(Cl)cc3)cc12	yes
Nc1n[nH]c2ccc(C(=O)N3CCCC[C@H]3c3ccc(F)cc3)cc12	no
CNc1n[nH]c2ccc(C(=O)N3CCC[C@H]3c3ccc(Cl)cc3)cc12	no
O=C(c1ccc2[nH]ncc2c1)N1CCC[C@H]1c1ccc(Cl)cc1	yes
Nc1n[nH]c2ccc(C(=O)N3CCC[C@H]3c3ccc(Br)cc3)cc12	no
Cc1ncc2sc(C(=O)N3CCCC3c3ccccc3)nn12 (centres undefined)	no
CCOc1ccccc1C(C)NC(=O)c1nn2c(C)ncc2s1 (centres undefined)	no
Cc1ncc2sc(C(=O)N3CCC[C@H]3c3ccc(Cl)cc3)nn12	no
Cc1n[nH]c2ccc(C(=O)N3CCOCC3c3ccc(Cl)cc3)cc12 (centres undefined)	yes
Cc1n[nH]c2ccc(C(=O)N3CC[C@H]3c3ccc(Cl)cc3)cc12	yes
Nc1n[nH]c2ccc(C(=O)N3CCC[C@H]3c3ccc(Cl)cc3)cc12	no
Nc1n[nH]c2ccc(C(=O)N3CCC[C@H]3c3ccc(F)cc3)cc12	no
Nc1n[nH]c2ccc(C(=O)N3CC[C@@H](c4ccc(Cl)cc4)C3)cc12	no
Cc1nnc2ccc(C(=O)N3CCC[C@H]3c3ccc(Cl)cc3)cn12	no
Cc1n[nH]c2cnc(C(=O)N3CCC[C@H]3c3ccc(Cl)cc3)cc12	yes
Cc1ncc2sc(C(=O)N3CCCC3c3ccc(Cl)cc3)nn12 (centres undefined)	no
Cc1n[nH]c2ncc(C(=O)N3CCC[C@H]3c3ccc(Cl)cc3)cc12	no
Cc1ncc2sc(C(=O)N3CCC[C@@H]3c3ccc(Cl)cc3)nn12	no
Nc1n[nH]c2ccc(C(=O)N3CC[C@H]3c3ccc(F)cc3)cc12	no
Cc1ncc2ccc(C(=O)N3CCC[C@H]3c3ccc(Cl)cc3)cn12	yes
Cc1ncc2sc(C(=O)N3CCCC3c3ccc(F)cc3)nn12 (centres undefined)	no
CCOc1ccccc1CNC(=O)c1nn2c(C)ncc2s1	yes

====

assay.text: Volume of distribution at steady state in Beagle dog at 0.2 mg/kg, iv as bolus dose or 0.5 mg/kg, po via gavage measured over 48 hrs
Assay type: ADME, organism-based, Canis lupus familiaris
study.conditions: in vivo, read-out: Vdss
endpoint.label: Vd (L/kg)

compound.structure	endpoint.label	quantitative.result
Cc1n[nH]c2ncc(C(=O)N3CCC[C@H]3c3ccc(Cl)cc3)cc12	Vd	1.47

====

assay.text: Plasma clearance in Wistar rat at 0.2 mg/kg, iv as bolus dose or 0.5 mg/kg, po via gavage measured over 6 hrs
Assay type: ADME, organism-based

compound.structure	clearance (L/h/kg)
Cc1n[nH]c2ncc(C(=O)N3CCC[C@H]3c3ccc(Cl)cc3)cc12	1.5

====

assay.target: hERG (KCNH2) (Homo sapiens)
Sequence (Q12809 whole entry): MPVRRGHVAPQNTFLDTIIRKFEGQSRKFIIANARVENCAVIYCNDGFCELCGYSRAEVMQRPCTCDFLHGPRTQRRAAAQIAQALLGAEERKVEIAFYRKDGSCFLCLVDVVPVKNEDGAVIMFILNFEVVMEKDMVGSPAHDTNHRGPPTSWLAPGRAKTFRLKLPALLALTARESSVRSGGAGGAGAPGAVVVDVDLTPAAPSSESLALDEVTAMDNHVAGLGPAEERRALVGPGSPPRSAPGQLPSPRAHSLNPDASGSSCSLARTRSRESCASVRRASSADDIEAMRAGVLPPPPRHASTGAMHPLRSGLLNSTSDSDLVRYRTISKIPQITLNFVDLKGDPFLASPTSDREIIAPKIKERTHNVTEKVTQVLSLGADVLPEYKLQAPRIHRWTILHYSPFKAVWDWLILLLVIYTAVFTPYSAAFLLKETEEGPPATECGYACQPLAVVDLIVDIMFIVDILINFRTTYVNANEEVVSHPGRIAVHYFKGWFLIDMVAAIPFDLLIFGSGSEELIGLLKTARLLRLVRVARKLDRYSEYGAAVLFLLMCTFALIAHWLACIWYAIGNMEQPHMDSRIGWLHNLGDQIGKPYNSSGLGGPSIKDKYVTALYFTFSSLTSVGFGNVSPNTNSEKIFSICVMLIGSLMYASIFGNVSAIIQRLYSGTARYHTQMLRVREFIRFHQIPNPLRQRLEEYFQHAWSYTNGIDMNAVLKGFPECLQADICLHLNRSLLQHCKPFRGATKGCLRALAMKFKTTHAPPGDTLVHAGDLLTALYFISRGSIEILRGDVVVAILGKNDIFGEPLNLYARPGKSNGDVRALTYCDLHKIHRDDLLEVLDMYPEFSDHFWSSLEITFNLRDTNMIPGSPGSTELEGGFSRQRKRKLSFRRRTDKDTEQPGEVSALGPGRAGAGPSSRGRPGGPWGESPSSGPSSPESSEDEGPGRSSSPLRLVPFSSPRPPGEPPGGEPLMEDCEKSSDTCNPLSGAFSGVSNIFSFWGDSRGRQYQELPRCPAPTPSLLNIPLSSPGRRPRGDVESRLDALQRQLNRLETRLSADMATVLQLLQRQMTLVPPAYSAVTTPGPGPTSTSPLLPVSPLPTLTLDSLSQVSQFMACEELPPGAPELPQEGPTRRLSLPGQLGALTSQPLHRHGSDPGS
assay.text: Inhibition of human ERG at 10 uM relative to control

compound.structure	inhibition at 10 µM
Cc1n[nH]c2ncc(C(=O)N3CCC[C@H]3c3ccc(Cl)cc3)cc12	18%

====

assay.text: Oral bioavailability in Wistar rat at 0.5 mg/kg via gavage measured over 6 hrs
Assay type: ADME, organism-based
study.conditions: in vivo
endpoint.label: bioavailability (%)

compound.structure	endpoint.label	quantitative.result
Cc1n[nH]c2ncc(C(=O)N3CCC[C@H]3c3ccc(Cl)cc3)cc12	bioavailability	66

====

assay.target: Cyclin-dependent kinase 8 (Homo sapiens, UniProt P49336)
assay.text: Inhibition of CDK8 in human 7dF3 cells preincubated for 2 hrs followed by beta-oestradiol addition measured after 24 hrs by luciferase reporter gene assay
Format: cell-based
pIC50: −log10 of the molar value.
endpoint.label: pIC50

compound	assay.target	quantitative.result
Nc1n[nH]c2ccc(C(=O)N3CCC[C@H]3c3ccc(Br)cc3)cc12	Cyclin-dependent kinase 8 (Homo sapiens, UniProt P49336)	7.72
Nc1n[nH]c2ccc(C(=O)N3CC[C@H]3c3ccc(F)cc3)cc12	Cyclin-dependent kinase 8 (Homo sapiens, UniProt P49336)	6.36
Cc1ncc2sc(C(=O)N3CCCC3c3ccc(Cl)cc3)nn12 (stereo not drawn)	Cyclin-dependent kinase 8 (Homo sapiens, UniProt P49336)	7.00
Cc1ncc2sc(C(=O)N3CCC[C@@H]3c3ccc(Cl)cc3)nn12	Cyclin-dependent kinase 8 (Homo sapiens, UniProt P49336)	5.80
Cc1n[nH]c2ccc(C(=O)N3CCOCC3c3ccc(Cl)cc3)cc12 (stereo not drawn)	Cyclin-dependent kinase 8 (Homo sapiens, UniProt P49336)	6.94
Nc1n[nH]c2ccc(C(=O)N3CC[C@@H](c4ccc(Cl)cc4)C3)cc12	Cyclin-dependent kinase 8 (Homo sapiens, UniProt P49336)	6.82
CCOc1ccccc1CNC(=O)c1nn2c(C)ncc2s1	Cyclin-dependent kinase 8 (Homo sapiens, UniProt P49336)	5.78
Nc1n[nH]c2ccc(C(=O)N3CCC[C@H]3c3ccc(Cl)cc3)cc12	Cyclin-dependent kinase 8 (Homo sapiens, UniProt P49336)	7.55
Cc1n[nH]c2ccc(C(=O)N3CC[C@H]3c3ccc(Cl)cc3)cc12	Cyclin-dependent kinase 8 (Homo sapiens, UniProt P49336)	8.70
Cc1ncc2sc(C(=O)N3CCC[C@H]3c3ccc(Cl)cc3)nn12	Cyclin-dependent kinase 8 (Homo sapiens, UniProt P49336)	7.15
Nc1n[nH]c2ccc(C(=O)N3CCC[C@H]3c3ccc(F)cc3)cc12	Cyclin-dependent kinase 8 (Homo sapiens, UniProt P49336)	6.92
CCOc1ccccc1C(C)NC(=O)c1nn2c(C)ncc2s1 (stereo not drawn)	Cyclin-dependent kinase 8 (Homo sapiens, UniProt P49336)	5.61
Cc1n[nH]c2ncc(C(=O)N3CCC[C@H]3c3ccc(Cl)cc3)cc12	Cyclin-dependent kinase 8 (Homo sapiens, UniProt P49336)	8.19

====

assay.text: Intrinsic clearance in rat liver microsomes at 1 uM preincubated for 5 mins followed by NADPH addition measured after 5 to 30 mins by LC-MS/MS analysis
Type: ADME
study.conditions: read-out: CLH

compound	microsomal CLint at 1 µM (µL/min/mg)
Cc1n[nH]c2ccc(C(=O)N3CCOCC3c3ccc(Cl)cc3)cc12 (stereo not drawn)	44
Cc1ncc2sc(C(=O)N3CCCC3c3ccccc3)nn12 (stereo not drawn)	446
Cc1n[nH]c2ccc(C(=O)N3CC[C@H]3c3ccc(Cl)cc3)cc12	62

====

Quick list: pIC50 per entry.
assay.target: CDK8/Cyclin C (Homo sapiens, UniProt P49336)
Sequence (P49336 whole entry): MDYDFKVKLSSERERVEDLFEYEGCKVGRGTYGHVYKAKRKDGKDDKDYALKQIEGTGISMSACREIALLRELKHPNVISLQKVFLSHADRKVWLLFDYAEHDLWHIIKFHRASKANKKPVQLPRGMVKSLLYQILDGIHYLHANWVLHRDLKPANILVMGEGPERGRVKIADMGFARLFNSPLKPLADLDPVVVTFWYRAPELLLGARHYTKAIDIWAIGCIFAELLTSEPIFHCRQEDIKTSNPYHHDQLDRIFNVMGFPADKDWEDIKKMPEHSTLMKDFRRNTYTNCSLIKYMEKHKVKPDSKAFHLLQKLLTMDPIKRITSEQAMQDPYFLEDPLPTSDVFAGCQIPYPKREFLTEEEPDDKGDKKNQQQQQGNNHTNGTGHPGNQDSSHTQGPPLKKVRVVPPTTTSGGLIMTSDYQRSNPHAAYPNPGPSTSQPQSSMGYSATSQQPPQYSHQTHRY
Sequence (P24863 whole entry, further chain): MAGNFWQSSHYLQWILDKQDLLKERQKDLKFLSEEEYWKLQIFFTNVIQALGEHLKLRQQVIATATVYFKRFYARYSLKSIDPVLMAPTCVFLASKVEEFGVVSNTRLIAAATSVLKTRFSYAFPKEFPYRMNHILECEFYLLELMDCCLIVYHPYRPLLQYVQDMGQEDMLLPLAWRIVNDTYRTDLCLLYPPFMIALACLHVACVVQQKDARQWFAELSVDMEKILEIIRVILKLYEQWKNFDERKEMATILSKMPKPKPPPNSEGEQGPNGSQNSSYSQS
assay.text: Inhibition of Alexa647 tracer binding to full length recombinant human His-tagged CDK8/cyclin C expressed in Baculovirus expression system preincubated for 20 mins followed by tracer addition and incubated in dark for 60 mins by FRET-based Lanthascreen assay
pIC50: −log10 of the molar value.
endpoint.label: pIC50

molecule	quantitative.result
Cc1ncc2sc(C(=O)N3CCC[C@H]3c3ccc(Cl)cc3)nn12	8.42
Cc1ncc2sc(C(=O)N3CCCC3c3ccc(Cl)cc3)nn12 (stereo not drawn)	7.77
CCOc1ccccc1C(C)NC(=O)c1nn2c(C)ncc2s1 (stereo not drawn)	6.11

====

assay.text: Intrinsic clearance in mouse liver microsomes at 1 uM preincubated for 5 mins followed by NADPH addition measured after 5 to 30 mins by LC-MS/MS analysis
Format: ADME
study.conditions: read-out: CLH
Reported microsomal CLint at 1 µM values follow for various compounds
endpoint.label: microsomal CLint at 1 µM

compound	endpoint.label	result
Cc1n[nH]c2ncc(C(=O)N3CCC[C@H]3c3ccc(Cl)cc3)cc12	microsomal CLint at 1 µM	< 10 µL/min/mg
CCOc1ccccc1C(C)NC(=O)c1nn2c(C)ncc2s1 (stereo not drawn)	microsomal CLint at 1 µM	> 1000 µL/min/mg
Nc1n[nH]c2ccc(C(=O)N3CCC[C@H]3c3ccc(F)cc3)cc12	microsomal CLint at 1 µM	< 10 µL/min/mg

====

assay.text: Intrinsic clearance in rat liver microsomes at 1 uM preincubated for 5 mins followed by NADPH addition measured after 5 to 30 mins by LC-MS/MS analysis
Format: ADME
study.conditions: read-out: CLH
endpoint.label: microsomal CLint at 1 µM (µL/min/mg)

compound	censoring.sign	quantitative.result
Nc1n[nH]c2ccc(C(=O)N3CCC[C@H]3c3ccc(Br)cc3)cc12	<	10
Cc1ncc2sc(C(=O)N3CCCC3c3ccc(F)cc3)nn12 (stereo not drawn)	=	280
Cc1n[nH]c2ncc(C(=O)N3CCC[C@H]3c3ccc(Cl)cc3)cc12	<	10
CNc1n[nH]c2ccc(C(=O)N3CCC[C@H]3c3ccc(Cl)cc3)cc12	=	28
Cc1ncc2sc(C(=O)N3CCC[C@@H]3c3ccc(Cl)cc3)nn12	=	449
Cc1n[nH]c2cnc(C(=O)N3CCC[C@H]3c3ccc(Cl)cc3)cc12	=	70
Cc1ncc2sc(C(=O)N3CCC[C@H]3c3ccc(Cl)cc3)nn12	=	655
Cc1ncc2sc(C(=O)N3CCCC3c3ccc(Cl)cc3)nn12 (stereo not drawn)	=	719
